experiment: Tmax in ICR mouse at 0.1 mg/kg, iv and 1 mg/kg, po administered as cassette dose by LC-MS/MS analysis; type: ADME, organism-based; conditions: in vivo
value-type: Tmax (h)
Dear colleague, please return just the value in h, with no unit written.

Tmax lookup needed for Cc1nn(-c2cccc3cc(Cc4cccc(C(F)(F)F)c4)sc23)c(CO)c1C(=O)NCCO , thanks.
1.7

###

biological target: G-protein coupled receptor 52 (Homo sapiens, UniProt Q9Y2T5); experiment: Agonist activity at human GPR52 expressed in CHO cells assessed as increase in cAMP level after 30 mins by AlphaScreen assay
Sequence (Q9Y2T5 whole entry): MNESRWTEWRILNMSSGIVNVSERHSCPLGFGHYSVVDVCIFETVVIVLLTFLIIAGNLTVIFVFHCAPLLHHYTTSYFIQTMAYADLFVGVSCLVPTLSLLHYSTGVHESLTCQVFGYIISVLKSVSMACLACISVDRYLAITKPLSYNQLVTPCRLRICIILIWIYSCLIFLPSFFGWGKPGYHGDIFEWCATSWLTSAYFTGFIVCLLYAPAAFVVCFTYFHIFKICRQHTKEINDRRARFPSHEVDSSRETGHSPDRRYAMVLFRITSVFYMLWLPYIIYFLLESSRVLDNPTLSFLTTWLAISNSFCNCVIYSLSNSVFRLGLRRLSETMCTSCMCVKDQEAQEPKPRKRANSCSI
Exercise: state measured pEC50 for each of the compounds provided.
Worth noting: pEC50 values are minus log10 of concentrations stated in mol/L.

Fill blank: measured pEC50 of the compound O=C(NCCO)c1cnn(-c2cccc3cc(Cc4cccc(C(F)(F)F)c4)sc23)c1 is ____.
7.06

Report pEC50 for COCCNC(=O)c1cnn(-c2cccc3cc(Cc4cccc(C(F)(F)F)c4)sc23)c1C please.
7.21

Find the recorded pEC50 belonging to Cc1nn(-c2cccc3cc(Cc4cccc(C(F)(F)F)c4)sc23)cc1C(=O)NCCO and report it.
8.28

Endpoint output: pEC50 of Cc1c(C(=O)NCCO)c(CO)nn1-c1cccc2cc(Cc3cccc(C(F)(F)F)c3)sc12 . Value?
6.84

Can you look up the measured pEC50 of COCCNC(=O)c1c(C)nn(-c2cccc3cc(Cc4cccc(C(F)(F)F)c4)sc23)c1C for me?
7.77

So what's the measured pEC50 for this one? COCCNC(=O)c1cn(-c2cccc3cc(Cc4cccc(C(F)(F)F)c4)sc23)nc1C
8.02

What pEC50 value was documented for this compound, COCCNC(=O)c1cnn(-c2cccc3cc(Cc4cccc(C(F)(F)F)c4)sc23)c1 ?
7.21

# get_value(readout='pEC50', item= Cc1nn(-c2cccc3cc(Cc4cccc(C(F)(F)F)c4)sc23)c(C)c1C(=O)NCCO )
7.82

Consider the compound Cc1nn(-c2cccc3cc(Cc4cccc(C(F)(F)F)c4)sc23)c(CO)c1C(=O)NCCO and give its measured pEC50.
7.68

Form field: reported pEC50 of Cn1nc(-c2cccc3cc(Cc4cccc(C(F)(F)F)c4)sc23)cc1C(=O)NCCO
7.35
